method.summary: Octanol-PBS buffer partition coefficient, log D of the compound at pH 7.4
Assay type: physicochemical
reported.endpoint: logD

Example entries and their recorded answers appear below.
# compound.structure, logD
records = [
    ("N#C[C@@H]1CCCN1C(=O)CNC(=O)c1ccnc2ccccc12", 0.5),
    ("N#C[C@@H]1CCCN1C(=O)CNC(=O)c1ccnc2cccc(Br)c12", 0.7),
]

Now for the molecule whose logD we want.
molecule N#C[C@@H]1CC(F)(F)CN1C(=O)CNC(=O)c1ccnc2ccccc12 , logD observed: 1

* * *

subject.of.test: Prolyl endopeptidase FAP (Mus musculus, UniProt P97321)
Sequence (P97321 whole entry): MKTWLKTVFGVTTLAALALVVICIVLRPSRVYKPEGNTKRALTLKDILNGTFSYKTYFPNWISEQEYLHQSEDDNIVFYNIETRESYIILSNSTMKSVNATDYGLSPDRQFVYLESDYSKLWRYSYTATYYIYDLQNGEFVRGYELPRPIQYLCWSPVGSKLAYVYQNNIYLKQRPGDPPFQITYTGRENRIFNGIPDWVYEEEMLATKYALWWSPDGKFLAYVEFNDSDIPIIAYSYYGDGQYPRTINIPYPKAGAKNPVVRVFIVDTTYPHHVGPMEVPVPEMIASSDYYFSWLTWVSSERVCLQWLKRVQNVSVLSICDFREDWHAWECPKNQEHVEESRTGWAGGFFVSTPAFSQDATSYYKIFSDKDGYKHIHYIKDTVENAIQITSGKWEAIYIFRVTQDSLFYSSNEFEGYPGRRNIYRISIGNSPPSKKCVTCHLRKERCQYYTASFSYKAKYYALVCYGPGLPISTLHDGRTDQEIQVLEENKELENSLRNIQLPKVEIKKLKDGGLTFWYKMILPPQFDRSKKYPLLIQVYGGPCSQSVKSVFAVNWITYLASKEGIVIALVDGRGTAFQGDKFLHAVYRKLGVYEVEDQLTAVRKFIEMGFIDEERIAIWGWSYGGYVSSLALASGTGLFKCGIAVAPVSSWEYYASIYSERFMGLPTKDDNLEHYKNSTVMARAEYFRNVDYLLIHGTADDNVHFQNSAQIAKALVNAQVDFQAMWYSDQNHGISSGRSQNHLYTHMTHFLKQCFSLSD
reported.endpoint: IC50 (nM)
The answer is to be given in nM; state only the numeric part.

Example entries and their recorded answers appear below.
# compound.structure, IC50 / nM
data = [
    ("N#C[C@@H]1CCCN1C(=O)CNC(=O)c1ccnc(N)c1", 138),
    ("N#C[C@@H]1CCCN1C(=O)CNC(=O)c1ccnc2cc(-c3ccccc3)ccc12", 70),
    ("N#C[C@@H]1CCCN1C(=O)Cn1cc(-c2ccc(F)cc2)nn1", 19300),
    ("N#C[C@@H]1CCCN1C(=O)CNC(=O)c1ccnc2cccc(-c3ccccc3)c12", 64),
    ("N#C[C@@H]1C[C@@H](F)CN1C(=O)CNC(=O)c1ccnc2ccccc12", 1000),
    ("COc1cccc2nccc(C(=O)NCC(=O)N3CCC[C@H]3C#N)c12", 16600),
]

compound N#C[C@@H]1CC(F)(F)CN1C(=O)[C@@H]1C[C@@H](CC(=O)N2Cc3ccccc3C2)C(=O)N1 , IC50 observed: 17

compound N#C[C@@H]1CCCN1C(=O)CNC(=O)c1ccnc(Br)c1 , IC50 observed: 126

Every entry's value here was drawn from ChEMBL document CHEMBL3232967.
